# study target: UniProt:P61073
# Sequence (P61073 whole entry): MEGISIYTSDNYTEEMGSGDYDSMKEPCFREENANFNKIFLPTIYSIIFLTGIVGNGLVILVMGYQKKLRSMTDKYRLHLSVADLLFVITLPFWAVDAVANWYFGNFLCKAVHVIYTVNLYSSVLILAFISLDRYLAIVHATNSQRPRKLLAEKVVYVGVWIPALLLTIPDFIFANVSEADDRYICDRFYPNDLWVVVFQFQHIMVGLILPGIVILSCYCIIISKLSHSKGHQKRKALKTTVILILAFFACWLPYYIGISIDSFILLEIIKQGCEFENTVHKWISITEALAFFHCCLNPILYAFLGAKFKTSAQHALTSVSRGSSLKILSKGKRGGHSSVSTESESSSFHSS
# protocol text: Antagonist activity at CXCR4 in human SUP-T1 cells assessed as inhibition of CXCL12-induced ERK phosphorylation preincubated with 15 mins followed by CXCL12 stimulation and measured after 12 mins by flow cytometry analysis
# Assay type: functional, cell-based
Square brackets hold non-standard residues; d marks the D form. Peptide text beside a SMILES is read from it.

- compound: "CSCC[C@H](NC(=O)[C@H](CCCCN)NC(=O)[C@H](CCCNC(=N)N)NC(=O)[C@H](CO)NC(=O)[C@H](Cc1c[nH]c2ccccc12)NC(=O)[C@H](CCCNC(=N)N)NC(=O)[C@H](CC(C)C)NC(=O)[C@H](CO)NC(C)=O)C(=O)N1CCC[C@H]1C(=O)N[C@@H](CS)C(=O)N[C@H](C(=O)N[C@@H](CO)C(=O)O)C(C)C"
  comparison operator: ">"
  IC50 [µM]: 100
- compound: "CC[C@H](C)[C@H](NC(C)=O)C(=O)N[C@@H](CC(C)C)C(=O)N[C@@H](CCCNC(=N)N)C(=O)N[C@@H](Cc1c[nH]c2ccccc12)C(=O)N[C@@H](CO)C(=O)N[C@@H](CCCNC(=N)N)C(=O)N[C@@H](CCCCN)C(=O)N[C@@H](CC(C)C)C(=O)N1CCC[C@H]1C(=O)N[C@@H](CS)C(=O)N[C@H](C(=O)N[C@@H](CO)C(=O)O)C(C)C"
  comparison operator: "="
  IC50 [µM]: 42.1
- compound: "CSCC[C@H](NC(=O)[C@H](CCCCN)NC(=O)[C@H](CCCNC(=N)N)NC(=O)[C@H](CO)NC(=O)[C@H](Cc1c[nH]c2ccccc12)NC(=O)[C@H](CCCNC(=N)N)NC(=O)[C@H](CC(C)C)NC(=O)[C@@H](CO)NC(C)=O)C(=O)N1CCC[C@H]1C(=O)N[C@@H](CS)C(=O)N[C@H](C(=O)N[C@@H](CO)C(=O)O)C(C)C"
  comparison operator: ">"
  IC50 [µM]: 100
- compound: "CSCC[C@H](NC(=O)CN)C(=O)N[C@@H](CCCNC(=N)N)C(=O)N[C@@H](Cc1c[nH]c2ccccc12)C(=O)N[C@@H](CO)C(=O)N[C@@H](CCCNC(=N)N)C(=O)N[C@@H](CCCCN)C(=O)N[C@@H](CCSC)C(=O)N1CCC[C@H]1C(=O)N[C@@H](CS)C(=O)N[C@H](C(=O)N[C@@H](CO)C(=O)O)C(C)C (H-GMRWSRKMPCVS-OH)"
  comparison operator: ">"
  IC50 [µM]: 100
- compound: "CSCC[C@H](NC(=O)[C@H](CCCCN)NC(=O)[C@H](CCCNC(=N)N)NC(=O)[C@H](CO)NC(=O)[C@H](Cc1c[nH]c2ccccc12)NC(=O)[C@H](CCCNC(=N)N)NC(=O)[C@H](CC(C)C)NC(=O)[C@H](N)CC(C)C)C(=O)N1CCC[C@H]1C(=O)N[C@@H](CS)C(=O)N[C@H](C(=O)N[C@@H](CO)C(=O)O)C(C)C (H-[dL]LRWSRKMPCVS-OH)"
  comparison operator: "="
  IC50 [µM]: 3.66
- compound: "CSCC[C@H](NC(=O)[C@@H](N)CCSC)C(=O)N[C@@H](CCCNC(=N)N)C(=O)N[C@@H](Cc1c[nH]c2ccccc12)C(=O)N[C@@H](CO)C(=O)N[C@@H](CCCNC(=N)N)C(=O)N[C@@H](CCCCN)C(=O)N[C@@H](CCSC)C(=O)N1CCC[C@H]1C(=O)N[C@@H](CS)C(=O)N[C@H](C(=O)N[C@@H](CO)C(=O)O)C(C)C (H-MMRWSRKMPCVS-OH)"
  comparison operator: "="
  IC50 [µM]: 7.3

Reference source: ChEMBL document CHEMBL5390277
